Target: UniProt:P43220
Experiment: GLP-1R Cell Assay 1: cAMP Hunter CHO-K1 GLP1R Gs cell line, HitHunter cAMP assay
Type: cell-based
Conditions: Table 2; cAMP Hunter CHO-K1 GLP1R Gs cells; percent activity normalized to Exendin-4
Listing: pEC50 of selected compounds
Recall that pEC50 is obtained by taking minus log10 of the concentration measured in molar.

Worked examples follow.
* N#Cc1ccc2sc(COc3cccc(N4CCN(Cc5nc6ccc(C(=O)O)cc6n5C[C@@H]5CCO5)CC4)n3)nc2c1 | 8.59
* O=C(O)c1ccc2nc(CN3CCN(c4cccc(OCc5nc6cccc(F)c6s5)n4)CC3)n(C[C@@H]3CCO3)c2c1 | 8.97
* CCn1cncc1Cn1c(CN2CCC(c3cccc(OCc4ccc(C#N)cc4F)n3)CC2)nc2ccc(C(=O)O)cc21 | 11.08
* O=C(O)c1ccc2nc(CN3CCN(c4cccc(OCc5ccc6ccccc6n5)n4)CC3)n(C[C@@H]3CCO3)c2c1 | 8.56
* N#Cc1cccc2c1CCN(c1cccc(N3CCN(Cc4nc5ccc(C(=O)O)cc5n4C[C@@H]4CCO4)CC3)n1)C2 | 7.36

As a next step, examine the compound that follows.
Challenge: Find the recorded pEC50 belonging to `O=C(O)c1ccc2nc(CN3CCN(c4cccc(OCc5nc6cc(Cl)ccc6s5)n4)CC3)n(C[C@@H]3CCO3)c2c1` and report it.
Response given: 8.91

* * *

Molecular target: human GLP-1R (Homo sapiens, UniProt P43220)
Sequence (P43220 24-463): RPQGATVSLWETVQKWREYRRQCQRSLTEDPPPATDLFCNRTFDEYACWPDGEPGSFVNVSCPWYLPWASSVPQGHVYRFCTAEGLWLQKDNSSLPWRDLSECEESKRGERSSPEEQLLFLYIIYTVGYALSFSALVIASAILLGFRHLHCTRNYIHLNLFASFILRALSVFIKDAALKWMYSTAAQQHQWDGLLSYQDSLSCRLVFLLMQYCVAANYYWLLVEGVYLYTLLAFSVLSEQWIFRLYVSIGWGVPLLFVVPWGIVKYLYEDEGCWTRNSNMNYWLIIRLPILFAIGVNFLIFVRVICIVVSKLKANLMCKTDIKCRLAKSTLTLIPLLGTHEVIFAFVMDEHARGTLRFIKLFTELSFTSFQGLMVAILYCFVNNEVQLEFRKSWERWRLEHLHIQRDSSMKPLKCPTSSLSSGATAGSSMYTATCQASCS
Assay: GLP-1R Cell Assay 1: cAMP Hunter CHO-K1 GLP1R Gs cell line, HitHunter cAMP assay
Format: cell-based
Conditions: Table 2; cAMP Hunter CHO-K1 GLP1R Gs cells; percent activity normalized to Exendin-4
Listing: EC50 of selected compounds
Please state the figure in nM; there is no need to write the unit.

Worked examples follow.
- O=C(O)c1ccc2nc(CN3CC[C@]4(c5cccc(OCc6ccccc6)n5)C[C@@H]4C3)n(C[C@@H]3CCO3)c2c1: 18.6
- N#Cc1ccc(COc2cccc(C3CCN([C@H]4COCCn5c4nc4ccc(C(=O)O)cc45)CC3)n2)c(F)c1 (single isomer, unassigned) [Compound 7-P1]: 5.19
- N#Cc1ccc(COc2nn(C3CCN(Cc4nc5ccc(C(=O)O)cc5n4C[C@@H]4CCO4)CC3)cc2CO)c(F)c1: 109
- N#Cc1ccc(Cn2ncc3ccc(N4CCN(Cc5nc6ccc(C(=O)O)cc6n5C[C@@H]5CCO5)CC4)nc32)c(F)c1: 16.3
- O=C(O)c1ccc2nc(CN3CCN(c4cccc(OCc5ccncc5)n4)CC3)n(C[C@@H]3CCO3)c2c1: 3.84

As a next step, examine the compound that follows.
Challenge: Find the recorded EC50 belonging to `C[C@@H]1COC[C@H](N2CCC(c3cccc(OCc4ccc(C#N)cc4F)n3)CC2)c2nc3ccc(C(=O)O)cc3n21` and report it.
Response given: 46.6

* * *

Target: human GLP-1R (Homo sapiens, UniProt P43220)
Test: GLP-1R Cell Assay 1: cAMP Hunter CHO-K1 GLP1R Gs cell line, HitHunter cAMP assay
Assay type: cell-based
Conditions: Table 3; cAMP Hunter CHO-K1 GLP1R Gs cells; percent activity normalized to Exendin-4
Listing: EC50 of selected compounds
Please state the figure in nM; there is no need to write the unit.

Worked examples follow.
* CCn1cncc1Cn1c(CN2CCC(c3cccc(OCc4nc5c(F)cc(C#N)cc5s4)n3)CC2)nc2ccc(C(=O)O)cc21 | 0.0254
* CCn1cncc1Cn1c(CN2CC[C@@]3(c4cccc(N5CCc6cc(C#N)cc(F)c6C5)n4)C[C@H]3C2)nc2ccc(C(=O)O)cc21 [Compound 184-P1] | 0.266

Challenge: Find the recorded EC50 belonging to `O=C(O)c1ccc2nc(CN3CCN(c4cc5ccccc5c(OCc5ccccc5)n4)CC3)n(C[C@@H]3CCO3)c2c1` and report it.
Response given: 87.1

* * *

Target: human GLP-1R (Homo sapiens)
Assay: GLP-1R Cell Assay 1: cAMP Hunter CHO-K1 GLP1R Gs cell line, HitHunter cAMP assay
Assay type: cell-based
Details: Table 2; cAMP Hunter CHO-K1 GLP1R Gs cells; percent activity normalized to Exendin-4
pEC50: −log10 of the molar value.
Assign yes (1) whenever pEC50 does not fall below 8; assign no (0) whenever it does.

* N#Cc1cccc2c1CN(c1cccc(N3CCN(Cc4nc5ccc(C(=O)O)cc5n4C[C@@H]4CCO4)CC3)n1)CC2 | yes (1)
* Cc1cc(OCc2ccccc2)nn1C1CCN(Cc2nc3ccc(C(=O)O)cc3n2C[C@@H]2CCO2)CC1 | no (0)
* CCn1cncc1Cn1c(CN2CC[C@]3(c4cccc(OCc5ccc(C#N)cc5F)n4)C[C@@H]3C2)nc2ccc(C(=O)O)cc21 (single isomer, unassigned) [Compound 121-P2] | yes (1)

Here is another compound to look at.
Challenge: Quick check: does `O=C(O)c1ccc2nc(CN3CC[C@]4(c5cccc(OCc6ccc(Cl)cc6F)n5)C[C@@H]4C3)n(C[C@@H]3CCO3)c2c1` have pEC50 greater than or equal to 8?
Response given: yes (1)

* * *

Molecular target: UniProtKB P43220
Assay: GLP-1R Cell Assay 1: cAMP Hunter CHO-K1 GLP1R Gs cell line, HitHunter cAMP assay
Type: cell-based
Details: Table 2; cAMP Hunter CHO-K1 GLP1R Gs cells; percent activity normalized to Exendin-4
Listing: pEC50 of selected compounds
Recall that pEC50 is obtained by taking minus log10 of the concentration measured in molar.

Worked examples follow.
• O=C(O)c1ccc2nc(CN3CCN(c4cccc(OCc5nc6cnccc6s5)n4)CC3)n(C[C@@H]3CCO3)c2c1 = 9.01
• O=C(O)c1ccc2nc(CN3CCN(c4cccc(OCc5cc6ccccc6o5)n4)CC3)n(C[C@@H]3CCO3)c2c1 = 8.69
• N#Cc1cccc2c1CCCN(c1cccc(N3CCN(Cc4nc5ccc(C(=O)O)cc5n4C[C@@H]4CCO4)CC3)n1)C2 = 7.25
• C[C@]1(c2cccc(OCc3ccc(C#N)cc3F)n2)CCN(Cc2nc3ccc(C(=O)O)cc3n2C[C@@H]2CCO2)C1 (single isomer, unassigned) [Compound 20-P2] = 6.78
• N#Cc1ccc(COc2cccc(C3CCN([C@H]4CCCCn5c4nc4ccc(C(=O)O)cc45)CC3)n2)c(F)c1 = 7.76

Challenge: Find the recorded pEC50 belonging to `C[C@@H](Oc1cccc(N2CCN(Cc3nc4ccc(C(=O)O)cc4n3C[C@@H]3CCO3)CC2)n1)c1nc2ccccc2s1` and report it.
Response given: 8.37

Challenge: Find the recorded pEC50 belonging to `N#Cc1ccc(COc2cccc(C3CCN([C@H]4CCCn5c4nc4ccc(C(=O)O)cc45)CC3)n2)c(F)c1` and report it.
Response given: 7.12

Challenge: Find the recorded pEC50 belonging to N#Cc1ccc(COc2cccc(C3CCN([C@@H]4CCn5c4nc4ccc(C(=O)O)cc45)CC3)n2)c(F)c1 (single isomer, unassigned) [Compound 6-P1] and report it.
Response given: 6.61

Challenge: Find the recorded pEC50 belonging to `O=C(O)c1ccc2nc(CN3CCN(c4cccc(OCc5cc6ccccc6s5)n4)CC3)n(C[C@@H]3CCO3)c2c1` and report it.
Response given: 9.00

Challenge: Find the recorded pEC50 belonging to `N#Cc1ccc2nc(COc3cccc(N4CCN(Cc5nc6ccc(C(=O)O)cc6n5C[C@@H]5CCO5)CC4)n3)sc2c1` and report it.
Response given: 9.67

* * *

Target: human GLP-1R (Homo sapiens)
Assay: GLP-1R Cell Assay 1: cAMP Hunter CHO-K1 GLP1R Gs cell line, HitHunter cAMP assay
Format: cell-based
Details: Table 2; cAMP Hunter CHO-K1 GLP1R Gs cells; percent activity normalized to Exendin-4
Property Name: EC50

Worked examples follow.
- N#Cc1ccc(COc2cccc(C3CCN([C@@H]4COCCn5c4nc4ccc(C(=O)O)cc45)CC3)n2)c(F)c1 (single isomer, unassigned) [Compound 7-P2]: > 500 nM
- N#Cc1ccc(COc2nn(C3CCN(Cc4nc5ccc(C(=O)O)cc5n4C[C@@H]4CCO4)CC3)cc2C2CC2)c(F)c1 [Compound 132]: 34 nM
- C[C@H]1c2ccc(C#N)cc2CCN1c1cccc(N2CCN(Cc3nc4ccc(C(=O)O)cc4n3C[C@@H]3CCO3)CC2)n1 [Compound 84]: 102 nM

As a next step, examine the molecule that follows.
Challenge: Field: EC50 (human GLP-1R (Homo sapiens)). Entry: CCn1cncc1Cn1c(CN2CCC(c3cccc(OCc4nc5ccccc5s4)n3)CC2)nc2ccc(C(=O)O)cc21 [Compound 125]
Response given: 0.0329 nM

* * *

Target: human GLP-1R (Homo sapiens, UniProt P43220)
Assay: GLP-1R Cell Assay 1: cAMP Hunter CHO-K1 GLP1R Gs cell line, HitHunter cAMP assay
Type: cell-based
Details: Table 2; cAMP Hunter CHO-K1 GLP1R Gs cells; percent activity normalized to Exendin-4
Property Name: pEC50
Recall that pEC50 is obtained by taking minus log10 of the concentration measured in molar.

- O=C(O)c1ccc2nc(CN3CCN(c4cccc(OCc5nc6ccc(Cl)cc6s5)n4)CC3)n(C[C@@H]3CCO3)c2c1 [Compound 113]: 9.75
- O=C(O)c1ccc2nc(CN3CCN(c4cccc(OC5(c6ccccc6)CCC5)n4)CC3)n(C[C@@H]3CCO3)c2c1 [Compound 51]: 6.46
- N#Cc1ccc(COc2cccc([C@]34CCN(Cc5nc6ccc(C(=O)O)cc6n5C[C@@H]5CCO5)C[C@H]3C4)n2)c(F)c1 [Compound 9-P2]: 9.31
- N#Cc1cc(F)c2c(c1)CCN(c1cccc(C3CCN(Cc4nc5ccc(C(=O)O)cc5n4C[C@@H]4CCO4)CC3)n1)C2 [Compound 13]: 9.10

As a next step, examine the compound that follows.
Challenge: Find the recorded pEC50 belonging to O=C(O)c1ccc2nc(CN3CCN(c4cccc(OCc5ccc6ccccc6c5)n4)CC3)n(C[C@@H]3CCO3)c2c1 [Compound 70] and report it.
Response given: 8.92
